Tgt: human Nurr1 ligand binding domain (LBD) fused to the Gal4 DNA binding domain (Homo sapiens, UniProt P43354)
Sequence (P43354 360-595 limits assumed): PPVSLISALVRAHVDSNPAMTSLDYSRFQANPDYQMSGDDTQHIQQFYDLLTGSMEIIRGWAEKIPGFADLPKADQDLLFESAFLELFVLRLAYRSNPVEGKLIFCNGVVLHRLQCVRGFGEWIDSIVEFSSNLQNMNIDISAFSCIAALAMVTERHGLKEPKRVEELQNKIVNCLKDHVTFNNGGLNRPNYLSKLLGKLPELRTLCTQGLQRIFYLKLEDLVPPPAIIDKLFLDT
Experiment Summary: Hybrid Gal4-Nurr1 reporter gene assay in transiently transfected HEK293T cells
Property Name: pEC50
pEC50 (log units): -log10 of the concentration in mol/L.

Reference set (2 entries):
{"Compound Structure": "Clc1ccc(-c2ccc(CN3CCOc4cc(Cl)ccc43)o2)cc1", "pEC50": 4.33}
{"Compound Structure": "O=C(Nc1ccnc2cc(Cl)ccc12)c1ccc(-c2ccc(Cl)cc2)o1", "pEC50": 5.52}

From here, focus on the item given below.
**Query** Could you tell me which pEC50 is on file for Clc1ccc(-c2ccc(CNc3ccnc4cc(Cl)ccc34)o2)cc1 ?
**Result** 5.10
